Reference for the values: the Human Domainome abundance scans (Beltran et al. 2025)

B1: CD2-associated protein, residues 271 to 331; numbered along this chain, Q9Y5K6 (parent)
chain: KEYCRTLFAYEGTNEDELTFKEGEIIHLISKETGEAGWWRGELNGKEGVFPDNFAVQINEL

# Variants of: B1
# Assay Protocol: abundance fitness (aPCA) (normalised: wild type 0, dead -1); higher = more abundant; growth selection in yeast, the domain comes from the species named
# Reported Conditions: Homo sapiens
Parameter: abundance fitness

Here are 10 variants together with their reported answers.
{"columns": ["Ordered Residues", "abundance fitness"],
 "data": [
  ["KEYCRTLFAYEGTNEDELTFKEGEIIHLISKETGEAGWWRGELNGKEGVFPDNFAVQIQEL", -0.056],
  ["KEYCRTLFAYEGTNEDELTFKEGEIILLISKETGEAGWWRGELNGKEGVFPDNFAVQINEL", -0.079],
  ["KEYCRTLFAYEGTNEDELTFKEGEIIHLISKETGEAGWWRIELNGKEGVFPDNFAVQINEL", -1.08],
  ["KEYCRTLFAYEGTNEDELTFKEGEIIHLASKETGEAGWWRGELNGKEGVFPDNFAVQINEL", -0.672],
  ["KHYCRTLFAYEGTNEDELTFKEGEIIHLISKETGEAGWWRGELNGKEGVFPDNFAVQINEL", 0.049],
  ["KEYCRTLFAYEGTNEDELTFKEGEIIHLISKETGEAGWMRGELNGKEGVFPDNFAVQINEL", -0.278],
  ["KEYCRTLFAYEGTNEDELTFSEGEIIHLISKETGEAGWWRGELNGKEGVFPDNFAVQINEL", -0.045],
  ["KEYCRTLFAYEGTNEDELTFKEGEIIHLISKETGEAGWWRGELNGKEGVFPDNFAVQISEL", 0.009],
  ["KEYCRTLFAYAGTNEDELTFKEGEIIHLISKETGEAGWWRGELNGKEGVFPDNFAVQINEL", -0.234],
  ["KEYCRFLFAYEGTNEDELTFKEGEIIHLISKETGEAGWWRGELNGKEGVFPDNFAVQINEL", -0.889]
]}

Items follow; give abundance fitness for each.
1. KEYCRTWFAYEGTNEDELTFKEGEIIHLISKETGEAGWWRGELNGKEGVFPDNFAVQINEL
2. KEYCRTLFAYEKTNEDELTFKEGEIIHLISKETGEAGWWRGELNGKEGVFPDNFAVQINEL
3. KEYCRTLFAYEGTNEDELTFKEGEIIHLISKETGEAGWWRGELNGKEGKFPDNFAVQINEL
4. KEYCRTLFAYEGTNEDELTFKEGEIIHLISKETGEAGWWRGELNGKEWVFPDNFAVQINEL
5. KMYCRTLFAYEGTNEDELTFKEGEIIHLISKETGEAGWWRGELNGKEGVFPDNFAVQINEL
6. KEYLRTLFAYEGTNEDELTFKEGEIIHLISKETGEAGWWRGELNGKEGVFPDNFAVQINEL
7. KEYCRTLFAYEGTNEDELTFKEGEIIHLIAKETGEAGWWRGELNGKEGVFPDNFAVQINEL
8. GEYCRTLFAYEGTNEDELTFKEGEIIHLISKETGEAGWWRGELNGKEGVFPDNFAVQINEL

*A*
-0.539
-0.224
0.003
-0.949
0.073
-0.046
-0.129
-0.223
